Cited source for all entries: the supplement of paper PMC12042874

- PROCEDURE_DETAILS: amyloid nucleation score (Sup35N fusion, yeast selection) (log enrichment); library NNK1; higher = more nucleation; inactive = no reads after selection;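 also: zero at mode of non-aggregating sequences after 7 days selection at 30°C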
Exercise: state measured amyloid nucleation score for each of the sequences provided.

Item: QMREFCLNACSINPRFLWAS | amyloid nucleation score: 1.51

Item: RNGCKFTKLFETVRFKEEGF | amyloid nucleation score: -1.03

Item: YVILFVIVVGSA | amyloid nucleation score: 0.654

Item: IAYKPLTWSSWEGSISIIRV | amyloid nucleation score: 0.149

Item: DRMKTQGFCQTFNFWLGYYI | amyloid nucleation score: 6.97

Item: LNDGTGDQ | amyloid nucleation score: -0.138

Item: SLLRARIKVVPV | amyloid nucleation score: -1.46

Item: KPYIFYFINVYCEA | amyloid nucleation score: 5.92

Item: KSFSIYTVIVV | amyloid nucleation score: 1.2

Item: VSNFLSYNRWAHHGLFNSSF | amyloid nucleation score: 0.553

---

- PROCEDURE_DETAILS: amyloid nucleation score (Sup35N fusion, yeast selection) (log enrichment); library NNK2; higher = more nucleation; inactive = no reads after selection
Label fulfilled when amyloid nucleation score is at or above -0.03; otherwise label not fulfilled.

Prompt line: Hello, I need to know if SYVDNWNISRVYLRLTYSVY has measured amyloid nucleation score not below -0.03. Thanks!
Response line: not fulfilled

Prompt line: Hello, I need to know if YVSFMGNSNMFVKLFLRGCI has measured amyloid nucleation score not below -0.03. Thanks!
Response line: fulfilled

Prompt line: Hello, I need to know if MASVMLQCHGCPLGKGTARA has measured amyloid nucleation score not below -0.03. Thanks!
Response line: fulfilled

Prompt line: Hello, I need to know if SVYENYRVTISLSRSSITSC has measured amyloid nucleation score not below -0.03. Thanks!
Response line: not fulfilled

Prompt line: Hello, I need to know if PRWAKYYVLSRC has measured amyloid nucleation score not below -0.03. Thanks!
Response line: not fulfilled

Prompt line: Hello, I need to know if MRVDLKLVSAYLKSRFGPMF has measured amyloid nucleation score not below -0.03. Thanks!
Response line: not fulfilled

Prompt line: Hello, I need to know if SYCLDDMRPWLHESTLSLSM has measured amyloid nucleation score not below -0.03. Thanks!
Response line: not fulfilled

Prompt line: Hello, I need to know if YLGLPLQDLRRVIMSEHVLV has measured amyloid nucleation score not below -0.03. Thanks!
Response line: fulfilled

Prompt line: Hello, I need to know if RIMIEFWPRFSWSI has measured amyloid nucleation score not below -0.03. Thanks!
Response line: fulfilled

Prompt line: Hello, I need to know if LTGFLNGAGNN has measured amyloid nucleation score not below -0.03. Thanks!
Response line: fulfilled

Prompt line: Hello, I need to know if SFRRSPELSQEFTRGYDSYR has measured amyloid nucleation score not below -0.03. Thanks!
Response line: not fulfilled

Prompt line: Hello, I need to know if LIFSAEMNLIVTDWTVRLSS has measured amyloid nucleation score not below -0.03. Thanks!
Response line: fulfilled

Prompt line: Hello, I need to know if LALSFIMMCPYR has measured amyloid nucleation score not below -0.03. Thanks!
Response line: fulfilled

Prompt line: Hello, I need to know if RVMSVCGSYVNRGEADVVSG has measured amyloid nucleation score not below -0.03. Thanks!
Response line: fulfilled

Prompt line: Hello, I need to know if GEYINAWSLNIV has measured amyloid nucleation score not below -0.03. Thanks!
Response line: not fulfilled

Prompt line: Hello, I need to know if LQVRLDTRR has measured amyloid nucleation score not below -0.03. Thanks!
Response line: fulfilled

Prompt line: Hello, I need to know if TSSMTNERDNLILV has measured amyloid nucleation score not below -0.03. Thanks!
Response line: not fulfilled

Prompt line: Hello, I need to know if WVCSFHYAEYSLRVIAARFP has measured amyloid nucleation score not below -0.03. Thanks!
Response line: fulfilled

Prompt line: Hello, I need to know if SSFWFSGAADINRVVLRGIE has measured amyloid nucleation score not below -0.03. Thanks!
Response line: not fulfilled

Prompt line: Hello, I need to know if YCGGFGGFWVEYWWDKYPTC has measured amyloid nucleation score not below -0.03. Thanks!
Response line: not fulfilled

Prompt line: Hello, I need to know if ENKPTRDLYSTTR has measured amyloid nucleation score not below -0.03. Thanks!
Response line: not fulfilled

Prompt line: Hello, I need to know if NCCEMNVLYLSIRLLFHVTA has measured amyloid nucleation score not below -0.03. Thanks!
Response line: fulfilled

Prompt line: Hello, I need to know if FCVAGQLLVS has measured amyloid nucleation score not below -0.03. Thanks!
Response line: fulfilled

---

- PROCEDURE_DETAILS: amyloid nucleation score (Sup35N fusion, yeast selection) (log enrichment); library NNK3; higher = more nucleation; inactive = no reads after selection
ENDPOINT_LABEL: amyloid nucleation score

Item: TDFMSFINVERMCVILYPFA | amyloid nucleation score: 1.36

Item: NLSWKGNAQDCLMGSVL | amyloid nucleation score: inactive

Item: LVLSWVITEVMDRVWRGSRG | amyloid nucleation score: inactive

Item: LNSFFAAIHILMGHFKRILS | amyloid nucleation score: inactive

Item: GMERFNGFKRVFMDSGCLHR | amyloid nucleation score: -0.707

Turning to the following sequence.
Item: LIVYFRPYGNALRRFVRSYV | amyloid nucleation score: inactive

---

- PROCEDURE_DETAILS: amyloid nucleation score (Sup35N fusion, yeast selection) (log enrichment); library NNK1; higher = more nucleation; inactive = no reads after selection
Exercise: state measured amyloid nucleation score for each of the substances provided.
// no unit string in output, number only

Item: LFNYPS | amyloid nucleation score: -0.948

Item: IWYYSSAQLDCFPYNSTMQE | amyloid nucleation score: 0.8

Item: LSTMRLGHYCLAYCRLGCLY | amyloid nucleation score: 0.827

---

- PROCEDURE_DETAILS: amyloid nucleation score (Sup35N fusion, yeast selection) (log enrichment); library NNK2; higher = more nucleation; inactive = no reads after selection
ENDPOINT_LABEL: amyloid nucleation score
// no unit string in output, number only

Item: SGCASSSDTFDRSLCCEYTL | amyloid nucleation score: 0.295

Item: AYCRGFYYIIALVSSPEQKR | amyloid nucleation score: 0.175

Item: HLNNCALGTDLILNALDVS | amyloid nucleation score: -0.426

Item: GSQYRVWISS | amyloid nucleation score: -0.214

Item: IQCTCTPDYPVLSLSVMVNF | amyloid nucleation score: 8.36

Item: WCMLRYCVESGLSVSFMHFS | amyloid nucleation score: -0.626

Item: STCTLKCWRWMPWTSFSFRC | amyloid nucleation score: 1.3

Item: GELRIYRLGHCVCVSMSLPA | amyloid nucleation score: 1.27

---

- PROCEDURE_DETAILS: amyloid nucleation score (Sup35N fusion, yeast selection) (log enrichment); library NNK2; higher = more nucleation; inactive = no reads after selection
ENDPOINT_LABEL: amyloid nucleation score

Item: DMYDLASRSKRELF | amyloid nucleation score: inactive

Item: NNWVAAHSLS | amyloid nucleation score: inactive

Item: TVFSYSWQFYGMHSISDYMI | amyloid nucleation score: inactive

---

- PROCEDURE_DETAILS: amyloid nucleation score (Sup35N fusion, yeast selection) (log enrichment); library NNK2; higher = more nucleation; inactive = no reads after selection
ENDPOINT_LABEL: amyloid nucleation score

Item: AFPTKCNVRSMSMHRLLLLC | amyloid nucleation score: inactive

Item: VAYLNLCLS | amyloid nucleation score: inactive

Item: YIMTYDYVCKNVGWYFTRC | amyloid nucleation score: inactive

---

- PROCEDURE_DETAILS: amyloid nucleation score (Sup35N fusion, yeast selection) (log enrichment); library NNK2; higher = more nucleation; inactive = no reads after selection
ENDPOINT_LABEL: amyloid nucleation score

Item: FYTDPALISHTVEIILVLLI | amyloid nucleation score: inactive

Item: VWDHVAGARALTWLRMLLKQ | amyloid nucleation score: inactive

Item: SYCYWMFSVLGGSSASEFRY | amyloid nucleation score: inactive

---

- PROCEDURE_DETAILS: amyloid nucleation score (Sup35N fusion, yeast selection) (log enrichment); library NNK1; higher = more nucleation; inactive = no reads after selection
Please use the following amyloid nucleation score ranges when assigning a class: A: < 0.02; B: ≥ 0.02 and < 0.7; C: ≥ 0.7

Prompt line: Hello team, could you let me know which band the following substance falls into: NCECSFWKREGSWGTLVSGM
Response line: B

Prompt line: Hello team, could you let me know which band the following substance falls into: LNSDCCPNSFDKHFLSFLCM
Response line: B

Prompt line: Hello team, could you let me know which band the following substance falls into: YVFSLVSESLQIIYHPLLLL
Response line: A

Prompt line: Hello team, could you let me know which band the following substance falls into: GSRSQCAPSQFLAAGTHNKF
Response line: A

Prompt line: Hello team, could you let me know which band the following substance falls into: LRVRFKSWDLSITLGVQ
Response line: C

Prompt line: Hello team, could you let me know which band the following substance falls into: MMPVRWHMFDAWDLWIDLER
Response line: A

Prompt line: Hello team, could you let me know which band the following substance falls into: PELYSVDHFNGYAPNYCRCR
Response line: A

Prompt line: Hello team, could you let me know which band the following substance falls into: RIKHERLIVFVMNLDINQ
Response line: C

Prompt line: Hello team, could you let me know which band the following substance falls into: RWFYSCDVVAFKGH
Response line: B

Prompt line: Hello team, could you let me know which band the following substance falls into: FIWDAWLGRKVSESHTVFHS
Response line: A

Prompt line: Hello team, could you let me know which band the following substance falls into: WVPMDVF
Response line: C

Prompt line: Hello team, could you let me know which band the following substance falls into: VFIQMGHELDFQCEE
Response line: B

Prompt line: Hello team, could you let me know which band the following substance falls into: WFAAHPYFNWDGGIRY
Response line: A

Prompt line: Hello team, could you let me know which band the following substance falls into: AFVTSRPYWGNSVVEAHLVG
Response line: C

Prompt line: Hello team, could you let me know which band the following substance falls into: EKVILHANCFCITMNRMLYH
Response line: A

Prompt line: Hello team, could you let me know which band the following substance falls into: FWIWVCSDLLLD
Response line: B

Prompt line: Hello team, could you let me know which band the following substance falls into: CWDLTTVCHNFNRYHSWVSR
Response line: B

Prompt line: Hello team, could you let me know which band the following substance falls into: FNSRGSVSNL
Response line: C

Prompt line: Hello team, could you let me know which band the following substance falls into: CFSSNCMEFLSNVLYKNINP
Response line: B

Prompt line: Hello team, could you let me know which band the following substance falls into: FNKTSMVSGNQLRVLVLVNI
Response line: C
